Reference source: the DeepSol protein solubility set

experimental protocol: soluble on expression in E. coli; label from the status in PepcDB or PDB records

primary sequence	soluble on expression in E. coli
MSLTTKDHSLATESPTLQQLGEFAVIDRLVRGRRQPATVLLGPGDDAALVSAGDGRTVVSTDMLVQDSHFRLDWSTPQDVGRKAIAQNAADIEAMGARATAFVVGFGAPAETPAAQASALVDGMWEEAGRIGAGIVGGDLVSCRQWVVSVTAIGDLDGRAPVLRSGAKAGSVLAVVGELGRSAAGYALWCNGIEDFAELRRRHLVPQPPYGHGAAAAAVGAQAMIDVSDGLLADLRHIAEASGVRIDLSAAALAADRDALTAAATALGTDPWPWVLSGGEDHALVACFVGPVPAGWRTIGRVLDGPARVLVDGEEWTGYAGWQSFGEPDNQGSLGEGHHHHHH	soluble
MSLKQYLITGGTGMVGSQLVNEIKKSDSHITILTRHDQISNDKKISYVNWAKSGWEHKVPQNIDVVINLAGATLNKRWTPEYKQTLMLSRIQSTQALYELFKSRNKAPKVLFNASATGYYPPDLFMSYTEVYKTLPFDFLSDIVYQWERFAQQFEQLGTRVVIGRFGMILSNEGGALQTMKLPYKYYIGGKLGSGQQWYSWIHINDLIQAILFLINNESASGPFNLTAPIPERQNLFGYTLARAMHKPHETWAPSLAMRLILGQMSTVVLDTQKVLPNKIQALGFQFKYSNLKMALEDLIKEGHHHHHH	soluble

====

experimental protocol: soluble on expression in E. coli; label from the status in PepcDB or PDB records

primary sequence	soluble on expression in E. coli
MGSDKIHHHHHHMCVKKGESSITSLVSAFGRAYHSEFDSPKIFDDYVAKEFISPKERSDIETNMVQGIHFFNTDIAEQFQDNPKEILKWITQVQLSPTPLARAAYCERVLLHEITLGAKQYVILGAGLDTFSFRHRELENKIEIFEVDHPSTQQFKKERIKEAELEVPNNLHFVSMDFTKGFSYEQLRNEGFEHKKTFFSLLGVSYYLTKEELASLIECLFEMVPEGSSIVFDYPDENLFTEKGLSNRVENMVKMAAVGGEPMKSCYSYAEMEALLEKAGLLIYEHLSPEDINAFYFEGRNDYLKAFETVHYVHAVKK	not soluble
MGHHHHHHSHMVTASRYYPQLMSLVGNVLRFLPAFVRMKQLISEHYVGAVMICDARIYSGSLLSPSYGWICDELMGGGGLHTMGTYIVDLLTHLTGRRAEKVHGLLKTFVRQNAAIRGIRHVTSDDFCFFQMLMGGGVCSTVTLNFNMPGAFVHEVMVVGSAGRLVARGADLYGQKNSATQEELLLRDSLAVGAGLPEQGPQDVPLLYLKGMVYMVQALRQSFQGQGDRRTWDRTPVSMAASFEDGLYMQSVVDAIKRSSRSGEWEAVEVLTEEPDTNQNLCEALQRNNL	not soluble
MRSLARGVTTNISKLIEARPKNTGQTVYLTHVKWVTGKSQLEHYFKRYGSIQSVNMFYDPDTGLHRGFASITFDSKDGANKAIEQRPHVIDGDRVDVEPYIPLISKNKKKDLML	not soluble

====

experimental protocol: soluble on expression in E. coli; label from the status in PepcDB or PDB records
measured endpoint: soluble on expression in E. coli

primary sequence	measured endpoint	result
FMQDFEDIQKDIEQLDIKCAHEQMNIQKQYDEKKKPLFEKRDEIIQKIPGFWANTLRKHPALSDIVPEDIDILNHLVKLDLKDNMDNNGSYKITFIFGEKAKEFMEPLTLVKHVTFDNNQEKVVECTRIKWKEGKNPIAAVTHNRSDLDNEIPKWSIFEWFTTDELQDKPDVGELIRREIWHNPLSYYLGLEE	soluble on expression in E. coli	soluble
MLDSKLKAPVFTVRTQGREYGEFVLEPLERGFGVTLGNPLRRILLSSIPGTAVTSVYIEDVLHEFSTIPGVKEDVVEIILNLKELVVRFLNPSLQTVTLLLKAEGPKEVKARDFLPVADVEIMNPDLHIATLEEGGRLNMEVRVDPGVGYVPAEKHGIKDRINAIPVDAVFSPVRRVAFQVEDTRLGQRTDLDKLTLRIWTDGSVTPLEALNQAVEILREHLTYFSNPQAAAVAAPEEAKEPEAPPEQEEELDLPLEELGLSTRVLHSLKEEGIESVRALLALNLKDLKNIPGIGERSLEEIKEALEKKGFTLKE	soluble on expression in E. coli	soluble
